system: EW-16 (Ewing's Sarcoma); assay: combination Emax (second highest fraction inhibited in the dose matrix, 72 h); higher = more inhibition; extreme values may be limits of the assay
Entries and their measured combination Emax follow.

Below are worked cases with known answers.
{"Molecule": "Cc1c2c(nn1C)CSCc1cc(n(C)n1)CSc1cc(c3ccccc3c1)OCCCc1c(C(=O)O)n(C)c3c-2c(Cl)ccc13 [AZD5991] + C1CN(CCC1(C(=O)N[C@@H](CCO)C2=CC=C(C=C2)Cl)N)C3=NC=NC4=C3C=CN4 [Capivasertib] (first compound max 1 µM, 7x7, partner max 3 µM)", "Readout Label": "combination Emax", "Recorded Result": 0.195}
{"Molecule": "CC1(C)CCC(CN2CCN(c3ccc(C(=O)NS(=O)(=O)c4ccc(NCC5CCOCC5)c([N+](=O)[O-])c4)c(Oc4cnc5[nH]ccc5c4)c3)CC2)=C(c2ccc(Cl)cc2)C1 [Venetoclax] + CCN(CCO)CCCOc1ccc2c(Nc3cc(CC(=O)Nc4cccc(F)c4)[nH]n3)ncnc2c1 [AZD2811] (first compound max 1 µM, 7x7, partner max 1 µM)", "Readout Label": "combination Emax", "Recorded Result": 0.714}
{"Molecule": "COc1cccc(OCCCN)c1-c1cc(Nc2cnc(C#N)cn2)n[nH]1 [Prexasertib] + C[C@@H]1COCCN1C2=NC(=NC(=C2)C3(CC3)[S@](=N)(=O)C)C4=C5C=CNC5=NC=C4 [AZD6738] (first compound max 1 µM, 7x7, partner max 10 µM)", "Readout Label": "combination Emax", "Recorded Result": 0.736}
{"Molecule": "NC1(C(=O)N[C@@H](CCO)c2ccc(Cl)cc2)CCN(c2ncnc3[nH]ccc23)CC1 [Capivasertib] + Cn1cnc2c(F)c(Nc3ccc(Br)cc3Cl)c(C(=O)NOCCO)cc21 [Selumetinib] (first compound max 10 µM, 7x7, partner max 10 µM)", "Readout Label": "combination Emax", "Recorded Result": 0.393}
{"Molecule": "Cc1c2c(nn1C)CSCc1cc(n(C)n1)CSc1cc(c3ccccc3c1)OCCCc1c(C(=O)O)n(C)c3c-2c(Cl)ccc13 [AZD5991] + C[C@@H](Nc1cc(F)cc(F)c1)c1cc(C(=O)N(C)C)cc2c(=O)cc(N3CCOCC3)oc12 [AZD8186] (first compound max 1 µM, 7x7, partner max 3 µM)", "Readout Label": "combination Emax", "Recorded Result": 0.281}

Look up and report combination Emax, with EW-16 (Ewing's Sarcoma) as system, for COc1nnc2ccc(N3CCC(c4ccc(OCCN5CCN(C)C(=O)[C@H]5C)cc4)CC3)nn12 [AZD5153] + C[C@@H]1COCCN1C2=NC(=NC(=C2)C3(CC3)[S@](=N)(=O)C)C4=C5C=CNC5=NC=C4 [AZD6738] (first compound max 1 µM, 7x7, partner max 10 µM)
0.747

Write down the reported combination Emax (system: EW-16 (Ewing's Sarcoma)) of CN(C)CCCOc1ccc(-c2ccc3ncc4c(c3c2)n(C2CCOCC2)c(=O)n4C)cn1 [AZD0156] + C[C@@H]1COCCN1C2=NC(=NC(=C2)C3(CC3)[S@](=N)(=O)C)C4=C5C=CNC5=NC=C4 [AZD6738] (first compound max 1 µM, 7x7, partner max 10 µM)
0.695

Report the value of combination Emax obtained on EW-16 (Ewing's Sarcoma) for COc1cccc(OCCCN)c1-c1cc(Nc2cnc(C#N)cn2)n[nH]1 [Prexasertib] + O=C(c1cc(Cc2n[nH]c(=O)c3ccccc23)ccc1F)N1CCN(C(=O)C2CC2)CC1 [Olaparib] (first compound max 1 µM, 7x7, partner max 10 µM) .
0.793
